# Method summary: Inhibition of forskolin-stimulated glycogenolysis in SK-HEP-1 cells
# Type: functional, cell-based
# Condition label: Homo sapiens, SK-HEP1
pIC50 reference
Keep in mind that pIC50 stands for -log10 of concentration in molar terms.

[
  {
    "Chemical smiles": "CN(C)C(=O)[C@@H](Cc1ccccc1)NC(=O)c1cc2cc(Cl)ccc2[nH]1",
    "Measurement": 4.92
  },
  {
    "Chemical smiles": "CN(C)C(=O)[C@H](O)[C@H](Cc1ccccc1)NC(=O)c1cc2cc(Br)ccc2[nH]1",
    "Measurement": 5.48
  },
  {
    "Chemical smiles": "CN(C)C(=O)[C@H](Cc1ccccc1)NC(=O)c1cc2cc(Cl)ccc2[nH]1",
    "Measurement": 5.72
  },
  {
    "Chemical smiles": "O=C(N[C@@H](Cc1ccc(F)cc1)C(=O)N1CCC(O)CC1)c1cc2cc(Cl)ccc2[nH]1",
    "Measurement": 5.72
  },
  {
    "Chemical smiles": "CN(C)C(=O)[C@H](Cc1ccccc1)NC(=O)c1cc2cc(F)ccc2[nH]1",
    "Measurement": 5.64
  },
  {
    "Chemical smiles": "CN(C)C(=O)[C@H](Cc1ccccc1)NC(=O)c1cc2ccccc2[nH]1",
    "Measurement": 5.11
  }
]

Recorded pIC50 (compound `CN(C)C(=O)[C@H](O)[C@H](Cc1ccccc1)NC(=O)c1cc2cc(Cl)ccc2[nH]1` ): 5.82

Just so you know, measured pIC50 for `CNC(=O)[C@H](Cc1ccccc1)NC(=O)c1cc2cc(Cl)ccc2[nH]1` came out at 5.28

// `CN(C)C(=O)[C@H](Cc1ccccc1)NC(=O)c1cc2cc(Br)ccc2[nH]1` : pIC50 value = 5.85
